- Test system: HOP-62 NSCLC
- assay-text: NCI tumour cell line growth inhibition, 48 h
quantity-measured: TGI

Below: 8 compounds and their reported TGI.
INSERT INTO assay_data (compound, quantity_measured, reported) VALUES
  ('Cn1c2[n+](c3nc(N)[nH]c(=O)c31)C1OC(C2)C(O)C1O (stereo not given)', 'TGI', '> 100 µM'),
  ('CC(=O)Nc1ccc(/C=C2\N=C(c3ccccc3)OC2=O)cc1', 'TGI', '> 100 µM'),
  ('CCCCCCCCCC(CCCC(O)CC(=O)O)OC1OC(COC2OC(C)C(OC(C)=O)C(O)C2O)C(O)C(O)C1OC1OC(CO)C(O)C(O)C1OC1OC(C)C(OC(=O)CC(C)C)C(O)C1O (stereo not given)', 'TGI', '> 35 µM'),
  ('O=[N+]([O-])c1ccc(C2=NOC(c3ccc(Cl)cc3)N2C23CC4CC(CC(C4)C2)C3)cc1 (stereo not given)', 'TGI', '> 100 µM'),
  ('COc1ccc(C(=O)O[C@H]2[C@H](O[C@H]3[C@@H](O)COC(O[C@H]4C[C@H]5[C@@H]6CC=C7C[C@@H](O)CC[C@]7(C)[C@H]6CC[C@]5(C)[C@H]4[C@H](C)C(=O)CCC(C)C)[C@@H]3OC(C)=O)OC[C@@H](O)[C@@H]2O)c(C)c1 (stereo not given in full)', 'TGI', '7.51 µM'),
  ('CC(C)CC(NP(=O)(O)OC1OC(C)C(O)C(O)C1O)C(=O)NC(Cc1c[nH]c2ccccc12)C(=O)O (stereo not given)', 'TGI', '> 100 µM'),
  ('CCCCNC(=NCc1ccccc1)NC#N', 'TGI', '> 100 µM'),
  ('O=Cc1c(-c2ccccc2)[nH]c2ccccc2c1=O', 'TGI', '> 100 µM');

# return TGI for each item in the list
1. O=C1/C(=C/c2[nH]ncc2-c2ccc(Cl)cc2)C(=O)N(c2ccccc2)C1c1ccccc1 (stereo not given)
2. COc1cccc2nc3ccccc3nc12
3. CCN(CC)CC(=O)NC1c2ccccc2Oc2c(C)cccc21 (stereo not given)
4. O=C(CCl)Nc1cc(Cl)c(Cl)cc1Cl
5. COc1ccc(S(=O)(=O)N[C@H](C(=O)O)c2ccccc2)cc1
6. CCN(CC)CCC1(C2CCCCC2)CCC(=O)NC1=O (stereo not given)

OUT:
["63.2 µM", "> 100 µM", "> 100 µM", "3.89 µM", "> 100 µM", "> 100 µM"]

# return TGI for each item in the list
1. CCOC(=O)c1c(-c2cccc(Cl)c2)c(C(=O)OC)c(C)c2sc(C=O)nc12
2. COc1ccc(NC(=O)CC(=O)NNC(Sc2ccccc2)c2cc(N=Nc3ccc(Br)cc3)ccc2O)cc1 (stereo not given)
3. CN(C)CCn1cnc2ncccc2c1=O
4. Cc1ccc(OCC2=NC3S/C(=C/c4ccc([N+](=O)[O-])o4)C(=O)N3N2)cc1 (stereo not given)

OUT:
["28.8 µM", "> 10 µM", "> 100 µM", "33.7 µM"]

# return TGI for each item in the list
1. Cc1cc(C)c2c(c1)N[S@@](=O)S2
2. O=C(Cn1c(=O)oc2ccc(C(=O)c3ccc(F)cc3)cc21)c1ccccc1
3. CCN(CC)CCN1C(=O)C2C3C(=O)CC(C)(CC3C)C2C1=O (stereo not given)
4. O=C(N/N=C(/c1nc2ccc([N+](=O)[O-])cc2[nH]c1=O)C(O)c1ccc([N+](=O)[O-])cc1)c1ccncc1 (stereo not given)
5. CC[C@]1(O)CC2CN(CCc3c([nH]c4ccccc34)[C@@](C(=O)OC)(c3cc4c(cc3OC)N(C=O)[C@H]3[C@@](O)(C(=O)OC)[C@H](OC(C)=O)[C@]5(CC)C=CCN6CC[C@]43[C@@H]65)C2)C1 (stereo not given in full)

OUT:
["> 100 µM", "> 100 µM", "> 100 µM", "> 100 µM", "> 44.2 µM"]

----------
Provide the reported TGI of each item.
- System: HCC-2998 colon
- assay-text: NCI tumour cell line growth inhibition, 48 h

Below: 3 molecules and their reported TGI.
INSERT INTO assay_data (molecule, reported) VALUES
  ('CCCCC(/C=C\COC1CCCCO1)=C/C(=O)OCC (stereo unspecified)', '> 100 µM'),
  ('Cc1ccc(Cl)cc1NC(=O)c1cc2ccccc2cc1O', '2.47 µM'),
  ('COc1cc(C2c3cc4c(cc3OC(NCCc3ccccc3)C2C)OCO4)cc(OC)c1OC (stereo unspecified)', '0.85 µM');

# return TGI for each item in the list
1. Cc1nc(C)c(N2CCN(C(=O)O)CC2)c(=O)[nH]1
2. CN=C(N)N=Nc1c(O)[nH]c2ccccc12
3. CCCCN=C(N)c1ccc(N2CCCN(c3ccc(C(N)=NCCCC)cc3)CC2)cc1
4. CN(C)C(=O)NC(=S)N(C)C
5. CCOC(=O)c1c(NC(=O)c2ccccc2)sc2c3c(ccc12)OCN(C)C3

OUT:
> 100 µM
> 100 µM
58.2 µM
> 100 µM
2.35 µM

# return TGI for each item in the list
1. COc1cc(C2c3cc4c(cc3[C@@H](Nc3ccc(Oc5ccccc5)cc3)C3COC(=O)[C@H]23)OCO4)cc(OC)c1O (stereo partly specified)
2. CC(=O)OCC1OC(n2c(N)c(C#N)c(C)c(C#N)c2=S)C(OC(C)=O)C(OC(C)=O)C1OC(C)=O (stereo unspecified)
3. NC(=O)c1nnsc1NN=O
4. Cc1ccc2nc(-c3ccc(NC(=O)c4ccc(N)cc4)c(S(=O)(=O)O)c3)sc2c1
5. O=C(N/C(=C\c1ccccc1Cl)c1nc2ccccc2[nH]1)c1ccccc1

OUT:
["13.8 µM", "> 100 µM", "> 100 µM", "> 100 µM", "91 µM"]

# return TGI for each item in the list
1. O=C1C=CC(=Nc2cccc3c(N=C4C=CC(=O)O4)cccc23)O1
2. [N-]=[N+]=Nc1ccc2c(c1)Sc1ccccc1N2CCCCN1CCN(Cc2ccc(C(=O)c3ccc(CSCC(N)C(=O)O)cc3)cc2)CC1 (stereo unspecified)
3. COC(=O)C1CC23C4=C(CCC41)CCC1CN4CC(C)C(CC(OC(C)=O)C12COC(C)=O)C43O (stereo unspecified)
4. Cc1ccc(-c2nc(N3CCNCC3)c3oc(-c4ccccc4)nc3n2)cc1
5. O=C1c2ccccc2C(=O)c2c1ccc1c(=O)n(-c3ccccc3C(F)(F)F)nnc21

OUT:
> 100 µM
59.2 µM
> 100 µM
> 100 µM
6.16 µM

----------
- Tested on: UACC-257 melanoma
- assay-text: NCI tumour cell line growth inhibition, 48 h
Provide the reported TGI of each item.

INSERT INTO results (compound, system_tested, reported) VALUES
  ('CCOC(=O)c1nc2ccc(C(F)(F)F)cc2nc1Nc1ccc(F)cc1', 'UACC-257 melanoma', '> 100 µM');

# return TGI for each item in the list
1. COc1cc(C2c3cc4c(cc3OC(NCCc3ccccc3)C2C)OCO4)cc(OC)c1OC (stereo not given)
2. Cc1nc(-n2nc(-c3ccccc3)cc2-c2ccccc2)sc1C(=O)/C=C/c1ccc(Cl)c(Cl)c1
3. COc1cc(C2c3[nH]c4ccccc4c3[C@@H](Nc3ccc(C#N)cc3)[C@H]3COC(=O)N23)cc(OC)c1O (stereo not given in full)
4. Cc1nc(C)c(N2CCN(C(=O)O)CC2)c(=O)[nH]1
5. CC(C)CC1c2[nH]c3ccccc3c2C[C@H]2C(=O)NC(CCCCNC(=O)OC(C)(C)C)C(=O)N12 (stereo not given in full)

OUT:
["> 85.5 µM", "> 100 µM", "3.29 µM", "> 100 µM", "> 100 µM"]

# return TGI for each item in the list
1. COc1cc(/C=C/C(=O)N2CCC=CC2=O)cc(OC)c1OC
2. Cc1cc(S(=O)(=O)Nc2n[nH]c(Nc3ccc4ccccc4c3)n2)c(S)cc1Cl
3. Cc1nc(-c2cnc(NC(C)C)n(C)c2=O)ccc1Oc1ccnc(-c2cnn(C)c2)c1
4. N#Cc1ccccc1C#C/C=C\C#Cc1ccccc1N
5. O=C(N/N=C(/c1nc2ccc([N+](=O)[O-])cc2[nH]c1=O)C(O)c1ccc([N+](=O)[O-])cc1)c1ccncc1 (stereo not given)

OUT:
1. 5.37 µM
2. > 100 µM
3. 55.1 µM
4. > 22.8 µM
5. > 100 µM

# return TGI for each item in the list
1. Cc1cccc(/C=N\NC(=S)N2CCCCC2)n1
2. CCN(CC)CC(=O)NC1c2ccccc2Oc2c(C)cccc21 (stereo not given)
3. Cn1c2[n+](c3nc(N)[nH]c(=O)c31)C1OC(C2)C(O)C1O (stereo not given)
4. CC(=O)Oc1c(OC(C)C)c(C)c(O[Si](C(C)C)(C(C)C)C(C)C)c2[nH]c3ccccc3c12
5. CCOC(=O)c1sc2c(c1O)c(=O)n(-c1ccccc1)c(=S)n2-c1ccccc1

OUT:
0.0589 µM
> 100 µM
> 100 µM
> 100 µM
> 100 µM
